# Study Target: DNA polymerase kappa (Homo sapiens)
# Experiment Description: qHTS for Inhibitors of Polymerase Kappa
# Condition: purified Pol kappa, fluorescent DNA synthesis assay, 10 min; series mostly up to 107 µM
In all, about 400,000 compounds went through this assay and about 2,200 (0.55%) were called active. Roughly 1% stayed inconclusive and do not appear here. Calls come from the whole dose curve; as a rule, active = well fitted inhibition curve with a large enough effect; inconclusive = small, poorly fitted or top-dose-only effect, or another doubt; inactive = no such curve, though single readings can be large or run the other way. The list comes from a sample in which actives are over-represented; it also holds close analogues and randomly drawn compounds.
Return exactly one item of y for active, n for inactive

Examples from the recorded data:
{"Compound": "O=C(Nc1cccc(F)c1)N1CCC2(CC1)CCN(S(=O)(=O)c1ccccc1)CC2", "Study Target": "DNA polymerase kappa (Homo sapiens)", "Class": "n"}
{"Compound": "O=c1c(-c2ccc(F)c(F)c2)nc2cncnc2n1-c1ccccc1", "Study Target": "DNA polymerase kappa (Homo sapiens)", "Class": "n"}
{"Compound": "CCC(C)Cn1c(O)cc2nn(-c3nc4ccccc4s3)c(=O)c-2c1C (stereo unspecified)", "Study Target": "DNA polymerase kappa (Homo sapiens)", "Class": "y"}
{"Compound": "O=C(Nc1cc(Cl)ccc1N1CCOCC1)c1ccc(N2CCCC2=O)cc1", "Study Target": "DNA polymerase kappa (Homo sapiens)", "Class": "n"}
{"Compound": "CCOc1ccc(NC(=O)Cn2c(C)ccc(C#N)c2=O)cc1", "Study Target": "DNA polymerase kappa (Homo sapiens)", "Class": "n"}

Hi, do you know how CCOc1ccc(NC(=O)c2ccc(NC(=O)COC(=O)c3ccc(NC(=O)CC#N)cc3)cc2)cc1 came out in this test?
y

Field: outcome | Entry: Cc1ccc(-c2nn(-c3ccccc3)cc2/C=C2\SC(=S)N(CCCCCC(=O)O)C2=O)o1
y

Could you kindly confirm the outcome this assay logged for O=C1/C(=C\c2ccc([N+](=O)[O-])cc2)CS(=O)(=O)C/C1=C/c1ccc([N+](=O)[O-])cc1 ?
y

Just curious, what result did CCOC(=O)c1ccc(-c2ccc(/C=C(\C#N)C(=O)Nc3ccc(OCC)cc3)o2)cc1 get here?
n

Identify the outcome logged in this assay for the compound shown: COc1c2c(cc3occ(-c4ccc5c(c4)OCO5)c(=O)c13)OC(C)(C)C=C2
n

State the result this test recorded for COc1ccccc1CCn1c(=O)c(-c2cn(C)c3ccccc23)nc2cncnc21 .
n

---

# Study Target: DNA polymerase kappa (Homo sapiens)
# Experiment Description: qHTS for Inhibitors of Polymerase Kappa; for activity, negative = inhibition: % is set by controls: 0 for no effect and ±100 for the full control effect
# Condition: purified Pol kappa, fluorescent DNA synthesis assay, 10 min; series mostly up to 107 µM
The whole screen tested about 400,000 compounds, of which about 2,200 (0.55%) were called active. Inconclusive results (about 1%) are left out. For the sample, actives were picked, then their nearest neighbours and some compounds at random.
Measured activity, negative = inhibition by item

Known results for compounds:
{"Smiles Entry": "NNc1nnc(NN)c2ccccc12", "Meas Value": "2.28% [at 19.4 µM] (inactive)"}
{"Smiles Entry": "C=CC(=O)c1ccc2ccccc2c1", "Meas Value": "7.32% [at 19.4 µM] (inactive)"}
{"Smiles Entry": "COc1ccc(OC)c([C@H](O)CNC(=O)CN)c1", "Meas Value": "-13.4% [at 19.4 µM] (inactive)"}
{"Smiles Entry": "OCCN1CCN(CC/C=C2\\c3ccccc3Sc3ccc(C(F)(F)F)cc32)CC1", "Meas Value": "-8.78% [at 12 µM] (inactive)"}
{"Smiles Entry": "C[C@]12CC[C@@H]3C(=CCc4cc(O)ccc43)[C@@H]1CCC2=O", "Meas Value": "-6.88% [at 12 µM] (inactive)"}

Read off the recorded activity, negative = inhibition for CCn1ccnc1C[C@@H]1COc2ccccc2O1
-7.82% [at 19.4 µM] (inactive)

---

# Study Target: DNA polymerase kappa (Homo sapiens) (UniProt Q9UBT6)
# Sequence (Q9UBT6 whole entry, looked up): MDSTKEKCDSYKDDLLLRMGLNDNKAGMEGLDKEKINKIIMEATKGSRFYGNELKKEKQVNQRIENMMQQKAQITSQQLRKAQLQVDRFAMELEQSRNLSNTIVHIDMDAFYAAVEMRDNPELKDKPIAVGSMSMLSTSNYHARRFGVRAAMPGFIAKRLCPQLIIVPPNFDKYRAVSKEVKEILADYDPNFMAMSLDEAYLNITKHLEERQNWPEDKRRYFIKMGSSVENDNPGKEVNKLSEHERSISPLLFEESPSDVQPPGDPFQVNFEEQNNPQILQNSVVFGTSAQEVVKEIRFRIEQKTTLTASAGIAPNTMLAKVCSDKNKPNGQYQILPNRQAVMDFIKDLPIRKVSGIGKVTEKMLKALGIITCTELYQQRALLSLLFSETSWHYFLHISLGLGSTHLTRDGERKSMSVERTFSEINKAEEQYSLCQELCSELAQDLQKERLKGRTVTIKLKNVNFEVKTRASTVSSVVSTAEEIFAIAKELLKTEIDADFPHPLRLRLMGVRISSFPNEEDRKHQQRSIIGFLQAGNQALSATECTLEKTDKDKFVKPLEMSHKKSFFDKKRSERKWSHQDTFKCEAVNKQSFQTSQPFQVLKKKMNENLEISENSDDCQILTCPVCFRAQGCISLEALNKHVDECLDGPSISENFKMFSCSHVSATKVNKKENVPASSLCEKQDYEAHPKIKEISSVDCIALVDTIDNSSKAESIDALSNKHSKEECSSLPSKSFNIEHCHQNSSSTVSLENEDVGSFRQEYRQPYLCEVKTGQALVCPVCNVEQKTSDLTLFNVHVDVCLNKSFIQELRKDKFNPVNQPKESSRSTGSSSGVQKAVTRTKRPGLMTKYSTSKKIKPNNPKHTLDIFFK
# Experiment Description: qHTS for Inhibitors of Polymerase Kappa
# Condition: purified Pol kappa, fluorescent DNA synthesis assay, 10 min; series mostly up to 107 µM
Hit rate of the full screen: of about 400,000 compounds, about 2,200 (0.55%) were called active. Not shown: some 1% with an inconclusive outcome. Calls follow the shape of the dose curve; as a rule, active = well fitted inhibition curve with a large enough effect; inconclusive = small, poorly fitted or top-dose-only effect, or another doubt; inactive = no such curve, though single readings can be large or run the other way. The list comes from a sample in which actives are over-represented; it also holds close analogues and randomly drawn compounds.
// classify into active, inactive

Check out these entries, answers already filled in.
{"Compound": "C=CCn1c(=S)[nH]c2scc(-c3ccco3)c2c1=O", "Study Target": "DNA polymerase kappa (Homo sapiens) (UniProt Q9UBT6)", "Class": "active"}
{"Compound": "COc1ccc(-n2c(SCC(=O)NCc3ccco3)nnc2-c2c[nH]c3ccccc23)cc1", "Study Target": "DNA polymerase kappa (Homo sapiens) (UniProt Q9UBT6)", "Class": "inactive"}
{"Compound": "CN(C)[C@@H]1C(=O)C(C(N)=O)=C(O)[C@@]2(O)C(=O)C3=C(O)c4c(O)ccc(Cl)c4[C@@H](O)[C@H]3C[C@@H]12", "Study Target": "DNA polymerase kappa (Homo sapiens) (UniProt Q9UBT6)", "Class": "active"}
{"Compound": "Nc1nc2c(nc(Cl)n2C2OC(CO)C(O)C2O)c(=O)[nH]1 (stereo unspecified)", "Study Target": "DNA polymerase kappa (Homo sapiens) (UniProt Q9UBT6)", "Class": "inactive"}

Please let me know the test result on file for CN(c1ccccc1)S(=O)(=O)c1ccc(Cl)c(C(=O)OCC(=O)N2CCOCC2)c1 .
inactive

Tell me the recorded outcome of this test for C[C@H]1CCC[C@@]2(C)CCCC[C@]12O .
inactive

---

# Study Target: DNA polymerase kappa (Homo sapiens)
# Experiment Description: qHTS for Inhibitors of Polymerase Kappa
# Condition: purified Pol kappa, fluorescent DNA synthesis assay, 10 min; series mostly up to 107 µM
About 2,200 (0.55%) of roughly 400,000 compounds were called active. Inconclusive results (about 1%) are left out. The full list was thinned out, with actives kept by preference.

{"Compound": "COc1cc(OC)c(/C=C/c2ccnc3ccccc23)c(OC)c1", "outcome": "inactive"}
{"Compound": "CC(C)(CNC(=O)c1ccc(Cl)c(S(=O)(=O)N2CCc3ccccc3C2)c1)N1CCOCC1", "outcome": "inactive"}
{"Compound": "COc1cc(NS(=O)(=O)c2ccc3c(c2)OCC(C(=O)N2CCCC2)O3)cc(OC)c1 (stereo not drawn)", "outcome": "inactive"}

---

# Study Target: DNA polymerase kappa (Homo sapiens) (UniProt Q9UBT6)
# Experiment Description: qHTS for Inhibitors of Polymerase Kappa; note: potency is the fitted concentration of half-maximal effect
# Condition: purified Pol kappa, fluorescent DNA synthesis assay, 10 min; series mostly up to 107 µM
In all, about 400,000 compounds went through this assay and about 2,200 (0.55%) were called active. Inconclusive results (about 1%) are left out. Many of the other results were omitted from the sample, so actives are more common in it than they were.
Measured Metric: Potency

Worked examples, 6 compounds total:
{"Compound": "COCCn1c(SCC(=O)N2CCCCCC2)nc2c(c1=O)SCC2", "Study Target": "DNA polymerase kappa (Homo sapiens) (UniProt Q9UBT6)", "Potency": "inactive"}
{"Compound": "N#Cc1ccccc1-c1ccc2ncnc(NCc3cccnc3)c2c1", "Study Target": "DNA polymerase kappa (Homo sapiens) (UniProt Q9UBT6)", "Potency": "inactive"}
{"Compound": "Cc1nc(SCC(=O)N2CCN(c3ccccc3)CC2)[nH]c(=O)c1C", "Study Target": "DNA polymerase kappa (Homo sapiens) (UniProt Q9UBT6)", "Potency": "inactive"}
{"Compound": "O=C(c1cc2cc(Br)cc(Br)c2oc1=O)N1CCOCC1", "Study Target": "DNA polymerase kappa (Homo sapiens) (UniProt Q9UBT6)", "Potency": "inactive"}
{"Compound": "CN(C(=O)CSc1nnc(NC(=O)Nc2ccccc2)s1)c1ccccc1", "Study Target": "DNA polymerase kappa (Homo sapiens) (UniProt Q9UBT6)", "Potency": "inactive"}
{"Compound": "CC(=O)c1ccc(NC(=O)CSc2nnc(NC(=O)Nc3ccccc3)s2)cc1", "Study Target": "DNA polymerase kappa (Homo sapiens) (UniProt Q9UBT6)", "Potency": "inactive"}

We now examine a further compound.
Give recorded Potency. CC[C@H](C)[C@H](NC(=O)[C@@H](N)CCC(=O)O)C(=O)N[C@@H](CC(C)C)C(=O)N[C@@H](CC(=O)O)C(=O)N[C@H](C(=O)N1CCC[C@H]1C(=O)N[C@@H](CO)C(=O)N[C@H](C(=O)O)[C@@H](C)O)C(C)C
inactive

---

# Study Target: DNA polymerase kappa (Homo sapiens)
# Experiment Description: qHTS for Inhibitors of Polymerase Kappa; note: potency is the fitted concentration of half-maximal effect
# Condition: purified Pol kappa, fluorescent DNA synthesis assay, 10 min; series mostly up to 107 µM
In all, about 400,000 compounds went through this assay and about 2,200 (0.55%) were called active. Inconclusive results (about 1%) are left out. For the sample, actives were picked, then their nearest neighbours and some compounds at random.
Measured Metric: Potency

{"Compound": "COc1ccc2[nH]c(C(=O)N/N=C/c3cc(OC)c(OC)c(OC)c3)cc2c1", "Meas Value": "50.1 µM (active)"}
{"Compound": "COCCn1c(=O)c(CCc2ccccc2)nc2cncnc21", "Meas Value": "inactive"}
{"Compound": "CC1(C)OC2CC3C4CCC5=CC(=O)CCC5(C)C4(F)C(O)CC3(C)[C@]2(C(=O)CCl)O1 (stereo partly specified)", "Meas Value": "inactive"}
{"Compound": "COc1cc(NC(=O)c2cc3ccc4cccnc4c3[nH]2)cc(OC)c1OC", "Meas Value": "inactive"}
{"Compound": "COC(=O)[C@@H]1CC2=CC(=O)CC[C@]2(C)[C@@]23O[C@@H]2C[C@@]2(C)[C@@H](CC[C@@]24CCC(=O)O4)[C@H]13", "Meas Value": "inactive"}

Consider the additional compound presented here.
// Input: O=C(O)C(O)[C@@](O)(Cc1ccc(O)cc1)C(=O)O (stereo partly specified) . Output its Potency only.
inactive
